B1: NP_015628.1 (parent)
chain: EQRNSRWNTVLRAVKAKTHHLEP

variants of: B1; experiment: protein stability index of a GFP-peptide fusion (GPS, HEK-293T) (PSI 1-6); higher = more stable; details: c terminus: native;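 also: lentivirally expressed fusion library, cells FACS-sorted into six equal-sized GFP/DsRed ratio bins, PSI computed from sequencing read fractions per bin weighted by bin number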
Parameter Measured: protein stability index
Number, no unit, nothing else.

> print(dat)
             residue.codes       parameter.measured  result.number
1  EQRNSRWNTVLRAVKAKKHHLEP  protein stability index           2.97

// protein stability index lookup, key: `EQRISRWNTVLRAVKAKTHHLEP`
2.94

Which protein stability index reading was recorded for the variant `EQRNSRWNTVLRAVKAPTHHLEP` ?
2.96
